- Assay notes: Cytotoxicity against C57BL/6 mouse BV-2 cells assessed as survival rate at 30 uM incubated for 24 hrs by MTT assay relative to control
- Assay type: toxicity, cell-based
- Run conditions: read-out: Survival
Below: a set of entries, each annotated with reported viability at 24 h, 30 µM.
Give just the numeric value; % need not be written.

Solved entries (count: 3):
entry_smiles=CCN1C[C@]2(OC(=O)c3ccccc3NC(=O)c3ccc(C#N)cc3)CC[C@H](OC)[C@]34C1[C@@H](C[C@H]23)[C@@]1(O)C[C@H](OC)[C@H]2C[C@@H]4[C@]1(O)[C@H]2OC measured_result=99.5
entry_smiles=CCN1C[C@]2(OC(=O)c3ccccc3NC(=O)S(=O)(=O)c3ccccc3)CC[C@H](OC)[C@]34C1[C@@H](C[C@H]23)[C@@]1(O)C[C@H](OC)[C@H]2C[C@@H]4[C@]1(O)[C@H]2OC measured_result=97.2
entry_smiles=CCN1C[C@]2(OC(=O)c3ccccc3NC(=O)S(=O)(=O)c3ccccc3Br)CC[C@H](OC)[C@]34C1[C@@H](C[C@H]23)[C@@]1(O)C[C@H](OC)[C@H]2C[C@@H]4[C@]1(O)[C@H]2OC measured_result=92.6

Proceeding to the next compound to report its viability at 24 h, 30 µM.
// lookup viability at 24 h, 30 µM for "CCN1C[C@]2(OC(=O)c3ccccc3NC(=O)S(=O)(=O)c3cccs3)CC[C@H](OC)[C@]34C1[C@@H](C[C@H]23)[C@@]1(O)C[C@H](OC)[C@H]2C[C@@H]4[C@]1(O)[C@H]2OC"
105

====

- Assay notes: Cytotoxicity against C57BL/6 mouse BV-2 cells assessed as survival rate at 30 uM incubated for 24 hrs by MTT assay relative to control
- Assay type: toxicity, cell-based
- Run conditions: read-out: Survival
Readout name: viability at 24 h, 30 µM (%)
Give just the number in %; leave the unit off.

See these solved cases before continuing.
compound=CCN1C[C@]2(OC(=O)c3ccccc3NC(=O)c3ccccc3)CC[C@H](OC)[C@]34C1[C@@H](C[C@H]23)[C@@]1(O)C[C@H](OC)[C@H]2C[C@@H]4[C@]1(O)[C@H]2OC u=% measured_result=107
compound=CCN1C[C@]2(OC(=O)c3ccccc3NC(=O)S(=O)(=O)c3cc(Br)c(Cl)s3)CC[C@H](OC)[C@]34C1[C@@H](C[C@H]23)[C@@]1(O)C[C@H](OC)[C@H]2C[C@@H]4[C@]1(O)[C@H]2OC u=% measured_result=94.3
compound=CCN1C[C@]2(COC(=O)c3ccccc3NS(=O)(=O)c3cccc(F)c3)CC[C@H](OC)[C@]34C1[C@@H](C[C@H]23)[C@@]1(O)C[C@H](OC)[C@H]2C[C@@H]4[C@]1(O)[C@H]2O u=% measured_result=106
compound=CCN1C[C@]2(OC(=O)c3ccccc3NC(=O)c3ccccc3Br)CC[C@H](OC)[C@]34C1[C@@H](C[C@H]23)[C@@]1(O)C[C@H](OC)[C@H]2C[C@@H]4[C@]1(O)[C@H]2OC u=% measured_result=106
compound=CCCCOC(=O)c1ccccc1NC(=O)c1ccc(Cl)s1 u=% measured_result=110

Quick one: viability at 24 h, 30 µM of "CCN1C[C@]2(OC(=O)c3ccccc3NC(=O)S(=O)(=O)c3cccnc3)CC[C@H](OC)[C@]34C1[C@@H](C[C@H]23)[C@@]1(O)C[C@H](OC)[C@H]2C[C@@H]4[C@]1(O)[C@H]2OC" ?
99.3

Returns the measured viability at 24 h, 30 µM for the input compound. Input: O=c1c(O)c(-c2ccc(O)c(O)c2)oc2cc(O)cc(O)c12 [QUERCETIN]
99.5

What does the data say about its viability at 24 h, 30 µM? Entry: "CCN1C[C@]2(COC(=O)c3ccccc3NS(=O)(=O)c3cccc(F)c3)CC[C@H](OC)[C@]34C1[C@@H](C[C@H]23)[C@@]1(O)C[C@H](OC)[C@H]2C[C@@H]4[C@]1(O)[C@H]2OC"
102

Name the recorded viability at 24 h, 30 µM for "CCN1C[C@]2(OC(=O)c3ccccc3NC(=O)c3ccc(Cl)s3)CC[C@H](OC)[C@]34C1[C@@H](C[C@H]23)[C@@]1(O)C[C@H](OC)[C@H]2C[C@@H]4[C@]1(O)[C@H]2OC" .
108

Bench note: what viability at 24 h, 30 µM did "COC(=O)c1ccccc1NS(=O)(=O)c1cccc(F)c1" show?
106

I have this compound here, "CCc1ccc(C(=O)Nc2ccccc2C(=O)O[C@@]23CC[C@H](OC)[C@]45C([C@@H](C[C@H]24)[C@@]2(O)C[C@H](OC)[C@H]4C[C@@H]5[C@]2(O)[C@H]4OC)N(CC)C3)cc1" , and I need its recorded viability at 24 h, 30 µM.
107

Which viability at 24 h, 30 µM value is on record for "CCN1C[C@]2(OC(=O)c3ccccc3NC(=O)c3ccc(Br)s3)CC[C@H](OC)[C@]34C1[C@@H](C[C@H]23)[C@@]1(O)C[C@H](OC)[C@H]2C[C@@H]4[C@]1(O)[C@H]2OC" ?
103

What does the record list as viability at 24 h, 30 µM for "CCN1C[C@]2(OC(=O)c3ccccc3NC(=O)c3ccccc3OC)CC[C@H](OC)[C@]34C1[C@@H](C[C@H]23)[C@@]1(O)C[C@H](OC)[C@H]2C[C@@H]4[C@]1(O)[C@H]2OC" ?
97

Entry under review: CCCCC(CC)C(=O)Nc1ccccc1C(=O)O[C@@]12CC[C@H](OC)[C@]34C([C@@H](C[C@H]13)[C@@]1(O)C[C@H](OC)[C@H]3C[C@@H]4[C@]1(O)[C@H]3OC)N(CC)C2 (stereo not given in full) . Reported viability at 24 h, 30 µM?
95.9

GET /values?readout=viability at 24 h, 30 µM&item= "CCCOc1ccc(C(=O)Nc2ccccc2C(=O)O[C@@]23CC[C@H](OC)[C@]45C([C@@H](C[C@H]24)[C@@]2(O)C[C@H](OC)[C@H]4C[C@@H]5[C@]2(O)[C@H]4OC)N(CC)C3)cc1"
105

Look up viability at 24 h, 30 µM for this compound: "CCN1C[C@]2(OC(=O)c3ccccc3NC(=O)CN(C)C)CC[C@H](OC)[C@]34C1[C@@H](C[C@H]23)[C@@]1(O)C[C@H](OC)[C@H]2C[C@@H]4[C@]1(O)[C@H]2OC"
94.5

Quick one: viability at 24 h, 30 µM of "CCN1C[C@]2(OC(=O)c3ccccc3NC(=O)S(=O)(=O)c3ccc(OC)cc3OC)CC[C@H](OC)[C@]34C1[C@@H](C[C@H]23)[C@@]1(O)C[C@H](OC)[C@H]2C[C@@H]4[C@]1(O)[C@H]2OC" ?
99.7

====

- Assay notes: Cytotoxicity against C57BL/6 mouse BV-2 cells assessed as survival rate at 30 uM incubated for 24 hrs by MTT assay relative to control
- Assay type: toxicity, cell-based
- Run conditions: read-out: Survival
Readout name: viability at 24 h, 30 µM (%)
Report the figure in % without appending any unit label.

# count of solved cases: 5
entry_smiles=CCN1C[C@]2(OC(=O)c3ccccc3NC(=O)S(=O)(=O)c3cccc4ccccc34)CC[C@H](OC)[C@]34C1[C@@H](C[C@H]23)[C@@]1(O)C[C@H](OC)[C@H]2C[C@@H]4[C@]1(O)[C@H]2OC readout_name="viability at 24 h, 30 µM" u=% measured_result=105
entry_smiles=CCN1C[C@]2(OC(=O)c3ccccc3NC(=O)S(C)(=O)=O)CC[C@H](OC)[C@]34C1[C@@H](C[C@H]23)[C@@]1(O)C[C@H](OC)[C@H]2C[C@@H]4[C@]1(O)[C@H]2OC readout_name="viability at 24 h, 30 µM" u=% measured_result=102
entry_smiles=CCN1C[C@]2(OC(=O)c3ccccc3NC(=O)S(=O)(=O)c3ccccn3)CC[C@H](OC)[C@]34C1[C@@H](C[C@H]23)[C@@]1(O)C[C@H](OC)[C@H]2C[C@@H]4[C@]1(O)[C@H]2OC readout_name="viability at 24 h, 30 µM" u=% measured_result=100
entry_smiles=CCN1C[C@]2(OC(=O)c3ccccc3NC(=O)S(=O)(=O)c3ccc(C#N)cc3Cl)CC[C@H](OC)[C@]34C1[C@@H](C[C@H]23)[C@@]1(O)C[C@H](OC)[C@H]2C[C@@H]4[C@]1(O)[C@H]2OC readout_name="viability at 24 h, 30 µM" u=% measured_result=99.4
entry_smiles=CCN1C[C@]2(OC(=O)c3ccccc3NC(=O)S(=O)(=O)c3cccc(C#N)c3)CC[C@H](OC)[C@]34C1[C@@H](C[C@H]23)[C@@]1(O)C[C@H](OC)[C@H]2C[C@@H]4[C@]1(O)[C@H]2OC readout_name="viability at 24 h, 30 µM" u=% measured_result=108

API: the following record is the query input.
# input compound: "CCN1C[C@]2(OC(=O)c3ccccc3NC(=O)C3CCCCC3)CC[C@H](OC)[C@]34C1[C@@H](C[C@H]23)[C@@]1(O)C[C@H](OC)[C@H]2C[C@@H]4[C@]1(O)[C@H]2OC" ; wanted: its viability at 24 h, 30 µM
105
